assay: protein stability index of a GFP-peptide fusion (yeast GPS) (PSI 1-4); higher = more stable; sorted into four equal gates, so the index is relative within each strain; conditions: ubr1∆
I'd appreciate it if you could supply protein stability index values for the items below.
Answers are plain numbers.

Task: Input TATASLGVIHKGNLLEG [RPN2] , output reported protein stability index.
Output: 2.72

# return protein stability index for each item in the list
1. SVDICNNSKSRYPMNLL [ECM29]
2. IREGQNQKIPDNVIVIN [SIR3]

Output:
[1.31, 3]

For every item in the list below, what is its measured protein stability index?
1. EKWLLNQIPVTEHSKVT [SRB6]
2. SKNFNVILASSLNEVGT [YML103C/NUP188]
3. TTIEEIFLHSLPVKEFQ [RPS2]
4. RKTLKEKAIPKDQRATT [RPO26]
5. NVKYRAVVFKPFKGEVV [RPB7]

Output:
1. 2.37
2. 2.39
3. 2.79
4. 3.31
5. 2.86
